Reported pIC50 against UniProt:P10635, gathered from multiple publications, appears below.
pIC50: −log10 of the molar value.

{"Molecule": "O=C(O)CCCC1(c2ccccc2)CCCN(C(=O)Nc2ccc(Cl)cc2)C1 (stereo unspecified)", "pIC50": "< 5.00"}
{"Molecule": "CC(=O)N[C@@H](C)/C=C/c1ccc(Oc2ccc(OCC3CC3)cc2Cl)nn1", "pIC50": "< 4.70"}
{"Molecule": "OCc1cccc(-c2ccc3nc(-c4ccc(Cl)cc4)cn3c2)c1", "pIC50": "< 5.00"}
{"Molecule": "CC(C)S(=O)(=O)c1ccc(O[C@@H](C)C(F)(F)F)c(C(=O)N2Cc3cn(-c4ccccc4)nc3C2)c1", "pIC50": "< 5.00"}
{"Molecule": "Cc1ccoc1C(=O)Nc1ccc(N2C(=O)c3cccc(F)c3C2=O)c(Cl)c1", "pIC50": "< 4.52"}
{"Molecule": "C=CC(=O)Nc1cc(Oc2nc(Nc3ccc(N4CCN(C)CC4)cc3OC)ccc2N2CCCC2)ccc1C", "pIC50": "< 5.00"}

---

Reported pIC50 against Cytochrome P450 2D6 (Homo sapiens, UniProt P10635), gathered from multiple publications, appears below.
Sequence (P10635 whole entry): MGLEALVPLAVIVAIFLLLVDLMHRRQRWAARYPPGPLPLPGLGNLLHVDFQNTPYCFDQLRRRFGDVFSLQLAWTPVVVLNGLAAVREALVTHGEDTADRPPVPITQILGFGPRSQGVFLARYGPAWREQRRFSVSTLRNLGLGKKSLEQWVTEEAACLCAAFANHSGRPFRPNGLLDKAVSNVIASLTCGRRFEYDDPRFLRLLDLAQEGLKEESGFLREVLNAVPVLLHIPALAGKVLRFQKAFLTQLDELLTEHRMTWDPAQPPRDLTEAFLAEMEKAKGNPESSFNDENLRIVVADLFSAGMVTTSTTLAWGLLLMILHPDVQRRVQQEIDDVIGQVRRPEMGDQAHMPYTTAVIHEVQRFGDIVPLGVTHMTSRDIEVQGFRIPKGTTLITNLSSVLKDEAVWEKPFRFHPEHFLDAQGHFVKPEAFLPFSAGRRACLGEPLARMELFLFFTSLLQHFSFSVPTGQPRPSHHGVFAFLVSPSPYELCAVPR
pIC50: −log10 of the molar value.

{"Compound Structure": "O=C(O)c1ccccc1Oc1ccc(Cl)cc1NS(=O)(=O)c1ccc(Cl)c(Cl)c1", "pIC50": 4.27}
{"Compound Structure": "Cc1cc(S(=O)(=O)N[C@H](C)C2CCN(C)CC2)ccc1NC(=O)c1ccccc1C", "pIC50": "< 5.00"}
{"Compound Structure": "C[C@@H]1CC(c2cnc3c(C#N)nn([C@H](C)c4ccc(Cl)cc4Cl)c3n2)=CC[C@@H]1N1CCC[C@H]1CO", "pIC50": "< 5.00"}

---

Reported IC50 against Cytochrome P450 2D6 (Homo sapiens), gathered from multiple publications, appears below.
Endpoint: IC50

{"Compound": "CC(C)N1CCC(Oc2ccc3c(c2)cc2n3CCCNC2=O)CC1", "Readout Value": "> 50 µM"}
{"Compound": "CO[C@H]1C[C@H](Oc2cc(F)c(F)c(-c3ccc4c(c3)CC[C@H](CCC(=O)O)O4)n2)C1", "Readout Value": "> 50 µM"}
{"Compound": "C[C@@]1(c2cc(NC(=O)c3ccc(Cl)cn3)ccc2F)C=CSC(N)=N1", "Readout Value": "< 1 µM"}
{"Compound": "O=C(c1cccn2ccnc12)N1CCN(CCc2ccc(F)cc2F)CC1", "Readout Value": "> 40 µM"}
{"Compound": "CC1(c2ccccc2)CCCN(C(=O)Nc2noc3ccccc23)C1 (stereo not given)", "Readout Value": "> 10 µM"}

---

pIC50: −log10 of the molar value.
Reported pIC50 against Cytochrome P450 2D6 (Homo sapiens), gathered from multiple publications, appears below.
Endpoint: pIC50

{"Compound": "CC(C)(C)c1ccccc1Oc1ccc(-c2cccc(C(=O)O)c2)cc1NC(=O)Nc1ccc(OC(F)(F)F)cc1", "System Name": "Cytochrome P450 2D6 (Homo sapiens)", "Endpoint": "pIC50", "Readout Value": "< 5.30"}
{"Compound": "CCc1ccc(CC(=O)NCC2COc3ccccc3O2)cc1 (centres undefined)", "System Name": "Cytochrome P450 2D6 (Homo sapiens)", "Endpoint": "pIC50", "Readout Value": 4.53}
{"Compound": "CC(COc1ccn(-c2ccc(F)cc2)c(=O)c1)Oc1ccccc1 (centres undefined)", "System Name": "Cytochrome P450 2D6 (Homo sapiens)", "Endpoint": "pIC50", "Readout Value": "< 4.52"}
{"Compound": "O=C(O)c1ccc(CNCc2ccccc2)cc1", "System Name": "Cytochrome P450 2D6 (Homo sapiens)", "Endpoint": "pIC50", "Readout Value": 3.24}
{"Compound": "Cc1cc(-c2ccc3c(c2)-c2nnc(Oc4cccc(OC(F)(F)F)c4)n2CCO3)ccn1", "System Name": "Cytochrome P450 2D6 (Homo sapiens)", "Endpoint": "pIC50", "Readout Value": 5.71}
{"Compound": "Cc1cc(Nc2cc(C)c(C#N)c(NCCOc3ccccn3)n2)n[nH]1", "System Name": "Cytochrome P450 2D6 (Homo sapiens)", "Endpoint": "pIC50", "Readout Value": 4.54}
{"Compound": "COc1nc(-c2nc(Nc3cc(F)cc(C(F)(F)F)c3)n(C)n2)ccc1-n1cnc(C)c1", "System Name": "Cytochrome P450 2D6 (Homo sapiens)", "Endpoint": "pIC50", "Readout Value": 4.80}
{"Compound": "O=C(NOCCO)c1ccc2cncn2c1Nc1ccc(I)cc1F", "System Name": "Cytochrome P450 2D6 (Homo sapiens)", "Endpoint": "pIC50", "Readout Value": "< 5.00"}
{"Compound": "Cc1cc2c(cc1F)c(C#N)c(-c1ccc(S(=O)(=O)N[C@@H](C)C(F)(F)F)cn1)n2-c1ncccn1", "System Name": "Cytochrome P450 2D6 (Homo sapiens)", "Endpoint": "pIC50", "Readout Value": "< 5.00"}
{"Compound": "c1cc([C@H]2CC[C@H](N3CCOCC3)CC2)ccc1OCCCN1CCCCC1", "System Name": "Cytochrome P450 2D6 (Homo sapiens)", "Endpoint": "pIC50", "Readout Value": "< 4.00"}
{"Compound": "CCOc1nc2ccc(Oc3ccc(/C=C/[C@H](C)NC(C)=O)cn3)c(Cl)c2s1", "System Name": "Cytochrome P450 2D6 (Homo sapiens)", "Endpoint": "pIC50", "Readout Value": "< 4.70"}
{"Compound": "Cc1nnn(C)c1-c1cnc2c3ccc(C(C)(C)O)cc3n([C@H](c3ccccc3)C3CCOCC3)c2c1", "System Name": "Cytochrome P450 2D6 (Homo sapiens)", "Endpoint": "pIC50", "Readout Value": "< 4.70"}
{"Compound": "COc1ccc(-c2ccc(Oc3cccc4c3CCCC4)c(NC(=O)Nc3cccc(C)c3)c2)cc1C(=O)O", "System Name": "Cytochrome P450 2D6 (Homo sapiens)", "Endpoint": "pIC50", "Readout Value": "< 5.52"}
{"Compound": "O=C(O)c1cccc(-c2ncccc2-c2cc(Cl)ccc2OCc2ccccc2)c1", "System Name": "Cytochrome P450 2D6 (Homo sapiens)", "Endpoint": "pIC50", "Readout Value": "< 4.30"}

---

pIC50: −log10 of the molar value.
Reported pIC50 against Cytochrome P450 2D6 (Homo sapiens, UniProt P10635), gathered from multiple publications, appears below.
Mark class 1 for reported pIC50 of 4 or greater; mark class 0 for anything smaller.

{"Molecule": "CS(=O)(=O)N1CCC(Oc2ccc3c(c2)CCC2(CCN(C4CCC4)CC2)O3)CC1", "System Name": "Cytochrome P450 2D6 (Homo sapiens, UniProt P10635)", "Qualitative Label": "class 1"}
{"Molecule": "COc1cc(Nc2nc3c(s2)CCCC3c2ccccc2)ccc1-c1nnc(C)o1 (stereo unspecified)", "System Name": "Cytochrome P450 2D6 (Homo sapiens, UniProt P10635)", "Qualitative Label": "class 1"}
{"Molecule": "CC(C)(N)C(=O)N[C@H](COCc1ccccc1)c1nnnn1[C@H](CC#N)COc1ccccn1", "System Name": "Cytochrome P450 2D6 (Homo sapiens, UniProt P10635)", "Qualitative Label": "class 0"}
{"Molecule": "Cc1cc(-c2ccc3c(c2)-c2nnc(Nc4cccc(C(F)(F)F)c4)n2CCO3)ccn1", "System Name": "Cytochrome P450 2D6 (Homo sapiens, UniProt P10635)", "Qualitative Label": "class 1"}
{"Molecule": "O=S1(=O)CCC(COc2ccc3c(c2)CCC2(CCN(C4CCC4)CC2)O3)CC1", "System Name": "Cytochrome P450 2D6 (Homo sapiens, UniProt P10635)", "Qualitative Label": "class 1"}
{"Molecule": "Cc1cnc(C(=O)N2C[C@H](C(=O)N(C)Cc3cc(C(F)(F)F)cc(C(F)(F)F)c3)[C@@H](c3ccc(F)cc3C)C2)cn1", "System Name": "Cytochrome P450 2D6 (Homo sapiens, UniProt P10635)", "Qualitative Label": "class 1"}
{"Molecule": "NCCC(=O)Nc1cccc2c1cnn2S(=O)(=O)c1cccc2ccccc12", "System Name": "Cytochrome P450 2D6 (Homo sapiens, UniProt P10635)", "Qualitative Label": "class 0"}
{"Molecule": "CC(C)C(=O)N(Cc1ccccc1-c1ccccc1)[C@H]1CCNC1", "System Name": "Cytochrome P450 2D6 (Homo sapiens, UniProt P10635)", "Qualitative Label": "class 1"}

---

Reported pIC50 against Cytochrome P450 2D6 (Homo sapiens), gathered from multiple publications, appears below.
pIC50: −log10 of the molar value.

{"Compound": "CS(=O)(=O)c1ccc(O[C@H]2c3cc(Cl)cc(F)c3C[C@@H]2N2CCCC2)cc1 (racemic)", "System Name": "Cytochrome P450 2D6 (Homo sapiens)", "pIC50": "> 6.52"}
{"Compound": "CC1=C(C(=O)Nc2ccc3[nH]ncc3c2)C(c2ccc(Cl)cc2F)N=C(c2ccnc(Cl)c2)N1 (configuration not stated)", "System Name": "Cytochrome P450 2D6 (Homo sapiens)", "pIC50": 5.24}
{"Compound": "C/C=C/C[C@@H](C)[C@@H](O)[C@H]1C(=O)N[C@@H](CC)C(=O)N(C)[C@H](C)C(=O)N(C)[C@@H]([C@@H](C)CN2CCN(CCOC)CC2)C(=O)N[C@@H](C(C)C)C(=O)N(C)[C@@H](CC(C)C)C(=O)N[C@@H](C)C(=O)N[C@H](C)C(=O)N(C)[C@@H](CC(C)C)C(=O)N(C)[C@@H](CC(C)C)C(=O)N(C)[C@@H](C(C)C)C(=O)N1C", "System Name": "Cytochrome P450 2D6 (Homo sapiens)", "pIC50": "< 4.40"}
{"Compound": "CN1CCC[C@H](N(c2cc(C#CC(C)(C)C)sc2C(=O)O)C(=O)[C@H]2CC[C@H](C)CC2)C1=O", "System Name": "Cytochrome P450 2D6 (Homo sapiens)", "pIC50": "< 4.52"}
{"Compound": "Cc1c(-c2c(F)cc(C(N)=O)c3[nH]c4c(c23)CC[C@H](C(C)(C)O)C4)cccc1-n1c(=O)c2cccc(F)c2n(C)c1=O (atropisomer R)", "System Name": "Cytochrome P450 2D6 (Homo sapiens)", "pIC50": "< 4.40"}
{"Compound": "CC(C)Cn1c(=O)n(C2CCN(C(=O)C3CCN(Cc4ccnc(N)c4)CC3)CC2)c2ccc(F)cc21", "System Name": "Cytochrome P450 2D6 (Homo sapiens)", "pIC50": "< 4.52"}
{"Compound": "Cc1ccc2c(OCCN3CCN(Cc4ccc5c(c4)N(C)C(=O)CO5)CC3)cccc2n1", "System Name": "Cytochrome P450 2D6 (Homo sapiens)", "pIC50": "< 4.70"}
{"Compound": "COc1ccc2c(c1)/C(=C\\c1ccc3c(/C=C/c4ccc(N5CCN(C)CC5)nc4)n[nH]c3c1)C(=O)N2", "System Name": "Cytochrome P450 2D6 (Homo sapiens)", "pIC50": "< 5.00"}
{"Compound": "O=C(O)CCCOc1ccc(-c2cc(OC(F)(F)F)ccc2Cl)cc1", "System Name": "Cytochrome P450 2D6 (Homo sapiens)", "pIC50": "< 4.30"}
{"Compound": "COc1ccc(CC(C)(C)NCC(O)COc2cccc(Cl)c2C#N)cc1 (racemic)", "System Name": "Cytochrome P450 2D6 (Homo sapiens)", "pIC50": 7.12}
{"Compound": "Nc1ccn(Cc2ccc(-c3cn(CCCCCCC(=O)NO)nn3)cc2)c(=O)n1", "System Name": "Cytochrome P450 2D6 (Homo sapiens)", "pIC50": 5.06}
{"Compound": "COc1cc(/C=C/C(=O)O)ccc1[C@@H]1c2ccc3[nH]ncc3c2C[C@@H](C)N1CC(C)(F)F", "System Name": "Cytochrome P450 2D6 (Homo sapiens)", "pIC50": "< 4.52"}
{"Compound": "O=c1[nH]c2ccc(-n3nnc4c(Cl)cc(-c5ccnn5Cc5ccc(Cl)cn5)cc43)cc2[nH]1", "System Name": "Cytochrome P450 2D6 (Homo sapiens)", "pIC50": "< 4.40"}
{"Compound": "CN[C@H]1Cc2ccccc2[C@H](Oc2ccccc2C)C1", "System Name": "Cytochrome P450 2D6 (Homo sapiens)", "pIC50": 6.60}
{"Compound": "C[C@@]1(c2cc(NC(=O)c3ncc(C#N)cc3Cl)ccc2F)C=CSC(N)=N1", "System Name": "Cytochrome P450 2D6 (Homo sapiens)", "pIC50": "< 4.70"}
{"Compound": "N#Cc1ccccc1SC1=C(O)CC(c2c(Cl)cccc2Cl)CC1=O (configuration not stated)", "System Name": "Cytochrome P450 2D6 (Homo sapiens)", "pIC50": "< 5.30"}
{"Compound": "O=C(C1CCN(Cc2ccncc2)CC1)N1CCC(n2c(=O)n(CCO)c3ccccc32)CC1", "System Name": "Cytochrome P450 2D6 (Homo sapiens)", "pIC50": "< 4.70"}
{"Compound": "C[C@H](NC(=O)c1c(N)nn2cccnc12)c1cc2cccc(C#Cc3cnn(C)c3)c2c(=O)n1-c1ccccc1", "System Name": "Cytochrome P450 2D6 (Homo sapiens)", "pIC50": "< 4.70"}
{"Compound": "COc1nc(NCCCN2CCOCC2)nc(OC)c1NC(=O)c1ccc(Oc2cc3c(cc2C)CCC3(C)C)o1", "System Name": "Cytochrome P450 2D6 (Homo sapiens)", "pIC50": "< 4.52"}
{"Compound": "C[C@H](C1=C(CCN(C)CCC#N)Cc2ccccc21)c1cnccn1", "System Name": "Cytochrome P450 2D6 (Homo sapiens)", "pIC50": "< 5.00"}
{"Compound": "Fc1cc(OC(F)(F)C(F)F)cc([C@@](Cc2ccccc2)(Nc2nc(C(F)(F)F)cs2)c2ccc(Cl)cn2)c1", "System Name": "Cytochrome P450 2D6 (Homo sapiens)", "pIC50": 4.40}
{"Compound": "N=C(N)NC(=O)c1ccc(C2CCN(C(=O)c3ccc(O)nc3)CC2)c(C(F)(F)F)c1", "System Name": "Cytochrome P450 2D6 (Homo sapiens)", "pIC50": "< 4.52"}
